Test system: A. baumannii 51243
Assay type: cell-based, Acinetobacter baumannii
Conditions: 51243, 18 h
Square brackets hold non-standard residues; d marks the D form. Peptide text beside a SMILES is read from it. ξ: configuration not given here. ξαMeGly(pent-4-enyl) = C=CCCCC(C)(N)C(=O)O
experimentalEndpoint: MIC, A. baumannii 51243 (µg/mL)
The reply should be a number in µg/mL, with the unit left off.

Some solved entries appear below for comparison.
C=CCCCC(C)(NC(=O)[C@@H](N)Cc1ccccc1)C(=O)N[C@@H](CCCCN)C(=O)N[C@@H](CC(C)C)C(=O)N[C@@H](CC(C)C)C(=O)N[C@@H](CCCCN)C(=O)N[C@@H](CCCCN)C(=O)N[C@@H](CC(C)C)C(=O)N[C@@H](CC(C)C)C(N)=O (stereo partly drawn) [Feleucin-K67] (H-F[ξαMeGly(pent-4-enyl)]KLLKKLL-NH2)    4
C=CCCCC(C)(NC(=O)[C@H](CC(C)C)NC(=O)[C@H](CC(C)C)NC(=O)[C@H](CCCCN)NC(=O)[C@H](CC(C)C)NC(=O)[C@@H](N)Cc1ccccc1)C(=O)N[C@@H](CCCCN)C(=O)N[C@@H](CC(C)C)C(=O)N[C@@H](CC(C)C)C(N)=O (stereo partly drawn) [Feleucin-K71] (H-FLKLL[ξαMeGly(pent-4-enyl)]KLL-NH2)    32
C=CCCCC(C)(NC(=O)[C@H](CC(C)C)NC(=O)[C@H](CCCCN)NC(=O)[C@H](CC(C)C)NC(=O)[C@@H](N)Cc1ccccc1)C(=O)N[C@@H](CCCCN)C(=O)N[C@@H](CCCCN)C(=O)N[C@@H](CC(C)C)C(=O)N[C@@H](CC(C)C)C(N)=O (stereo partly drawn) [Feleucin-K68] (H-FLKL[ξαMeGly(pent-4-enyl)]KKLL-NH2)    4
C=CCCCC(C)(NC(=O)[C@H](CC(C)C)NC(=O)[C@H](CCCCN)NC(=O)[C@H](CCCCN)NC(=O)[C@H](CC(C)C)NC(=O)[C@H](CC(C)C)NC(=O)[C@H](CCCCN)NC(=O)[C@H](CC(C)C)NC(=O)[C@@H](N)Cc1ccccc1)C(N)=O (stereo partly drawn) [Feleucin-K70] (H-FLKLLKKL[ξαMeGly(pent-4-enyl)]-NH2)    8
C=CCCCC(C)(NC(=O)[C@H](CCCCN)NC(=O)[C@H](CCCCN)NC(=O)[C@H](CC(C)C)NC(=O)[C@H](CC(C)C)NC(=O)[C@H](CCCCN)NC(=O)[C@H](CC(C)C)NC(=O)[C@@H](N)Cc1ccccc1)C(=O)N[C@@H](CC(C)C)C(N)=O (stereo partly drawn) [Feleucin-K69] (H-FLKLLKK[ξαMeGly(pent-4-enyl)]L-NH2)    8

// query Fill: MIC, A. baumannii 51243 (A. baumannii 51243) for this compound C=CCCCC(C)(N)C(=O)N[C@@H](CC(C)C)C(=O)N[C@@H](CCCCN)C(=O)N[C@@H](CC(C)C)C(=O)N[C@@H](CC(C)C)C(=O)N[C@@H](CCCCN)C(=O)N[C@@H](CCCCN)C(=O)N[C@@H](CC(C)C)C(=O)N[C@@H](CC(C)C)C(N)=O (stereo partly drawn) [Feleucin-K65] (H-[ξαMeGly(pent-4-enyl)]LKLLKKLL-NH2)
// result 4

* * *

# maps each entry to its MIC, MRSA 48
Tested on: MRSA 48
Type: cell-based, Staphylococcus aureus
Settings: 48, 18 h
Square brackets hold non-standard residues; d marks the D form. Peptide text beside a SMILES is read from it. ξ: configuration not given here. ξαMeGly(pent-4-enyl) = C=CCCCC(C)(N)C(=O)O
The reply should be a number in µg/mL, with the unit left off.

C=CCCCC(C)(NC(=O)[C@H](CC(C)C)NC(=O)[C@H](CCCCN)NC(=O)[C@H](CC(C)C)NC(=O)[C@@H](N)Cc1ccccc1)C(=O)N[C@@H](CCCCN)C(=O)N[C@@H](CCCCN)C(=O)N[C@@H](CC(C)C)C(=O)N[C@@H](CC(C)C)C(N)=O (some centres unmarked) [Feleucin-K68] (H-FLKL[ξαMeGly(pent-4-enyl)]KKLL-NH2)    4

Now let's try a different one.
// query Item C=CCCCC(C)(NC(=O)[C@H](CCCCN)NC(=O)[C@H](CCCCN)NC(=O)[C@H](CC(C)C)NC(=O)[C@H](CC(C)C)NC(=O)[C@H](CCCCN)NC(=O)[C@H](CC(C)C)NC(=O)[C@@H](N)Cc1ccccc1)C(=O)N[C@@H](CC(C)C)C(N)=O (stereo partly drawn) [Feleucin-K69] (H-FLKLLKK[ξαMeGly(pent-4-enyl)]L-NH2) : provide MIC, MRSA 48
// result 4

* * *

Test system: MRSA 48
Format: cell-based, Staphylococcus aureus
Settings: 48, 18 h
Square brackets hold non-standard residues; d marks the D form. Peptide text beside a SMILES is read from it. ξ: configuration not given here. ξαMeGly(pent-4-enyl) = C=CCCCC(C)(N)C(=O)O
# maps each entry to its MIC, MRSA 48
The reply should be a number in µg/mL, with the unit left off.

Some solved entries appear below for comparison.
C=CCCCC(C)(NC(=O)[C@H](CC(C)C)NC(=O)[C@H](CCCCN)NC(=O)[C@H](CCCCN)NC(=O)[C@H](CC(C)C)NC(=O)[C@H](CC(C)C)NC(=O)[C@H](CCCCN)NC(=O)[C@H](CC(C)C)NC(=O)[C@@H](N)Cc1ccccc1)C(N)=O (stereo partly shown) [Feleucin-K70] (H-FLKLLKKL[ξαMeGly(pent-4-enyl)]-NH2)    8
C=CCCCC(C)(NC(=O)[C@@H](N)Cc1ccccc1)C(=O)N[C@@H](CCCCN)C(=O)N[C@@H](CC(C)C)C(=O)N[C@@H](CC(C)C)C(=O)N[C@@H](CCCCN)C(=O)N[C@@H](CCCCN)C(=O)N[C@@H](CC(C)C)C(=O)N[C@@H](CC(C)C)C(N)=O (stereo partly shown) [Feleucin-K67] (H-F[ξαMeGly(pent-4-enyl)]KLLKKLL-NH2)    4
C=CCCCC(C)(NC(=O)[C@H](CC(C)C)NC(=O)[C@H](CC(C)C)NC(=O)[C@H](CCCCN)NC(=O)[C@H](CC(C)C)NC(=O)[C@@H](N)Cc1ccccc1)C(=O)N[C@@H](CCCCN)C(=O)N[C@@H](CC(C)C)C(=O)N[C@@H](CC(C)C)C(N)=O (stereo partly shown) [Feleucin-K71] (H-FLKLL[ξαMeGly(pent-4-enyl)]KLL-NH2)    4

Now let's try a different one.
// query Item C=CCCCC(C)(N)C(=O)N[C@@H](CC(C)C)C(=O)N[C@@H](CCCCN)C(=O)N[C@@H](CC(C)C)C(=O)N[C@@H](CC(C)C)C(=O)N[C@@H](CCCCN)C(=O)N[C@@H](CCCCN)C(=O)N[C@@H](CC(C)C)C(=O)N[C@@H](CC(C)C)C(N)=O (stereo partly shown) [Feleucin-K65] (H-[ξαMeGly(pent-4-enyl)]LKLLKKLL-NH2) : provide MIC, MRSA 48
// result 4

* * *

Test system: S. aureus 725
Type: cell-based, Staphylococcus aureus
Settings: 725, 18 h
Square brackets hold non-standard residues; d marks the D form. Peptide text beside a SMILES is read from it. ξ: configuration not given here. ξαMeGly(pent-4-enyl) = C=CCCCC(C)(N)C(=O)O
experimentalEndpoint: MIC, S. aureus 725 (µg/mL)
The reply should be a number in µg/mL, with the unit left off.

Some solved entries appear below for comparison.
C=CCCCC(C)(NC(=O)[C@H](CC(C)C)NC(=O)[C@H](CCCCN)NC(=O)[C@H](CCCCN)NC(=O)[C@H](CC(C)C)NC(=O)[C@H](CC(C)C)NC(=O)[C@H](CCCCN)NC(=O)[C@H](CC(C)C)NC(=O)[C@@H](N)Cc1ccccc1)C(N)=O (stereo partly drawn) [Feleucin-K70] (H-FLKLLKKL[ξαMeGly(pent-4-enyl)]-NH2)    8
C=CCCCC(C)(N)C(=O)N[C@@H](CC(C)C)C(=O)N[C@@H](CCCCN)C(=O)N[C@@H](CC(C)C)C(=O)N[C@@H](CC(C)C)C(=O)N[C@@H](CCCCN)C(=O)N[C@@H](CCCCN)C(=O)N[C@@H](CC(C)C)C(=O)N[C@@H](CC(C)C)C(N)=O (stereo partly drawn) [Feleucin-K65] (H-[ξαMeGly(pent-4-enyl)]LKLLKKLL-NH2)    4

Now let's try a different one.
// query Item C=CCCCC(C)(NC(=O)[C@H](CC(C)C)NC(=O)[C@H](CCCCN)NC(=O)[C@H](CC(C)C)NC(=O)[C@@H](N)Cc1ccccc1)C(=O)N[C@@H](CCCCN)C(=O)N[C@@H](CCCCN)C(=O)N[C@@H](CC(C)C)C(=O)N[C@@H](CC(C)C)C(N)=O (stereo partly drawn) [Feleucin-K68] (H-FLKL[ξαMeGly(pent-4-enyl)]KKLL-NH2) : provide MIC, S. aureus 725
// result 4

Source: paper PMC8160793
